assayed_system: T1, mTREX1 truncated (nuclease domain) (Mus musculus, UniProt Q91XB0 1-242)
T1 sequence: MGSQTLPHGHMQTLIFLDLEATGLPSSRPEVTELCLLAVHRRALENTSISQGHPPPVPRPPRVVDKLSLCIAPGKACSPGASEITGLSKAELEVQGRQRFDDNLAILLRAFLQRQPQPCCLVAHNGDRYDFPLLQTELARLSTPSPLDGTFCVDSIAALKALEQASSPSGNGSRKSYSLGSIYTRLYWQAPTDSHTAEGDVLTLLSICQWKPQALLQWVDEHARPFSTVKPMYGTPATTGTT
assay_explanation: fluorescence anisotropy; 20 mM EDTA, no Mg2+; FA: 5 nM FAM nucleic acid, 120 mM NaCl, 20 mM Tris pH 7.0, 20 mM EDTA, room temperature, 30 min; RNase T EMSA: 120 mM NaCl, 50 mM EDTA, 20 mM buffer (truncated)
condition_label: protein: recombinant; tags: His-tag; chain copies: 2; blunt

binder	result_units	Kd
DNA/RNA hybrid 20 bp (DNA:RNA) DNA: ACTGGACAAATACTCCGAGG RNA: CCUCGGAGUAUUUGUCCAGU	nM	102

Cited source: paper PMC10681709
